- TEST_DESCRIPTION: Lipophilicity, log D of the compound by HPLC method
- Type: physicochemical
VALUE_KIND: logD
Output spec: single numeric token, no unit.

For orientation, consider the following solved cases.
{"columns": ["GIVEN_SMILES", "MEASURED_RESULT"],
 "data": [
  ["O=C(Nc1nc2ccc(Sc3nnc4ccc(-c5ccc(F)cc5)nn34)cc2s1)OCCN1CCOCC1", 4.1],
  ["CCN(CC)CCNC(=O)Nc1nc2ccc(Sc3nnc4ccc(-c5ccc(F)cc5)nn34)cc2s1", 4.15],
  ["O=C(NCCN1CCOCC1)Nc1nc2ccc(Sc3nnc4ccc(-c5ccc(F)cc5)nn34)cc2s1", 4.2],
  ["O=C(Nc1nc2ccc(Sc3nnc4ccc(-c5ccc(F)cc5)nn34)cc2s1)C1CC1", 4.7]
]}

Query: Identify logD associated with the molecule COC(=O)Nc1nc2cc(Sc3nnc4ccc(-c5ccc(F)cc5)nn34)ccc2[nH]1
Reply: 3.8

Query: Identify logD associated with the molecule O=C(CCCN1CCOCC1)Nc1nc2ccc(Sc3nnc4ccc(-c5ccc(F)cc5)nn34)cc2s1
Reply: 4.3

Query: Identify logD associated with the molecule CCN1CCC(CCNC(=O)Nc2nc3ccc(Sc4nnc5ccc(-c6cccs6)nn45)cc3s2)CC1
Reply: 3.9

====

- TESTED_ON: UniProt:P08581
- TEST_DESCRIPTION: Inhibition of phosphorylated MET in human MKN45 cells assessed as reduction in pMET Y1230/1234/1235 level incubated for 1 hr by ELISA
- Format: cell-based
VALUE_KIND: pIC50
Interpret pIC50 as the negative base-10 log of the concentration measured in mol/L.

{"columns": ["GIVEN_SMILES", "pIC50"],
 "data": [
  ["COC(=O)Nc1nc2ccc(Sc3nnc4ccc(-c5ccc(F)cc5)nn34)cc2s1", 7.66],
  ["CCNc1nc2ccc(Sc3nnc4ccc(-c5ccc(F)cc5)nn34)cc2s1", 7.82]
]}

Attention now turns to another entry.
Query: Identify pIC50 associated with the compound O=C(Nc1nc2ccc(Sc3nnc4ccc(-c5ccc(F)cc5)nn34)cc2s1)C1CC1
Reply: 8.40

====

- TESTED_ON: Hepatocyte growth factor receptor (Homo sapiens)
- TEST_DESCRIPTION: Inhibition of wild type phosphorylated MET (unknown origin) pre-incubated for 30 mins before biotinylated poly(glutamate-alanine-tyrosine) peptide addition and measured after 5 mins by HTRF assay
The following compounds are listed with their measured log10 IC50 values.
Values below are the log10 of the recorded IC50, with nM as the unit.

{"columns": ["GIVEN_SMILES", "TESTED_ON", "MEASURED_RESULT"],
 "data": [
  ["COC(=O)Nc1nc2cc(OS(=O)(=O)c3c(Cl)cccc3Cl)ccc2[nH]1", "Hepatocyte growth factor receptor (Homo sapiens)", 1.36],
  ["O=C(Nc1nc2ccc(Sc3nnc4ccc(-c5ccc(F)cc5)nn34)cc2s1)C1CC1", "Hepatocyte growth factor receptor (Homo sapiens)", 0.48],
  ["O=C(NCCN1CCOCC1)Nc1nc2ccc(Sc3nnc4ccc(OC5CCCCCC5)nn34)cc2s1", "Hepatocyte growth factor receptor (Homo sapiens)", 1.18],
  ["COCCNC(=O)Nc1nc2cc(OS(=O)(=O)c3c(F)cccc3F)ccc2[nH]1", "Hepatocyte growth factor receptor (Homo sapiens)", 0.70],
  ["O=C(CCCN1CCOCC1)Nc1nc2ccc(Sc3nnc4ccc(-c5ccc(F)cc5)nn34)cc2s1", "Hepatocyte growth factor receptor (Homo sapiens)", 0.78]
]}

Query: Identify log10 IC50 associated with the compound O=C(Nc1nc2ccc(Sc3nnc4ccc(-c5ccc(F)cc5)nn34)cc2s1)OCCN1CCOCC1
Reply: 1.65

Query: Identify log10 IC50 associated with the compound O=C(NCCN1CCOCC1)Nc1nc2ccc(Sc3nnc4ccc(OC5CCCC5)nn34)cc2s1
Reply: 0.78

Query: Identify log10 IC50 associated with the compound O=C(NCCN1CCOCC1)Nc1nc2ccc(Sc3nnc4ccc(NC5CC5)nn34)cc2s1
Reply: 0.00

====

The following molecules are listed with their measured IC50 values.
- TESTED_ON: Hepatocyte growth factor receptor (Homo sapiens, UniProt P08581, Y1230H)
- Sequence (P08581 25-1390 Y1230H limits assumed): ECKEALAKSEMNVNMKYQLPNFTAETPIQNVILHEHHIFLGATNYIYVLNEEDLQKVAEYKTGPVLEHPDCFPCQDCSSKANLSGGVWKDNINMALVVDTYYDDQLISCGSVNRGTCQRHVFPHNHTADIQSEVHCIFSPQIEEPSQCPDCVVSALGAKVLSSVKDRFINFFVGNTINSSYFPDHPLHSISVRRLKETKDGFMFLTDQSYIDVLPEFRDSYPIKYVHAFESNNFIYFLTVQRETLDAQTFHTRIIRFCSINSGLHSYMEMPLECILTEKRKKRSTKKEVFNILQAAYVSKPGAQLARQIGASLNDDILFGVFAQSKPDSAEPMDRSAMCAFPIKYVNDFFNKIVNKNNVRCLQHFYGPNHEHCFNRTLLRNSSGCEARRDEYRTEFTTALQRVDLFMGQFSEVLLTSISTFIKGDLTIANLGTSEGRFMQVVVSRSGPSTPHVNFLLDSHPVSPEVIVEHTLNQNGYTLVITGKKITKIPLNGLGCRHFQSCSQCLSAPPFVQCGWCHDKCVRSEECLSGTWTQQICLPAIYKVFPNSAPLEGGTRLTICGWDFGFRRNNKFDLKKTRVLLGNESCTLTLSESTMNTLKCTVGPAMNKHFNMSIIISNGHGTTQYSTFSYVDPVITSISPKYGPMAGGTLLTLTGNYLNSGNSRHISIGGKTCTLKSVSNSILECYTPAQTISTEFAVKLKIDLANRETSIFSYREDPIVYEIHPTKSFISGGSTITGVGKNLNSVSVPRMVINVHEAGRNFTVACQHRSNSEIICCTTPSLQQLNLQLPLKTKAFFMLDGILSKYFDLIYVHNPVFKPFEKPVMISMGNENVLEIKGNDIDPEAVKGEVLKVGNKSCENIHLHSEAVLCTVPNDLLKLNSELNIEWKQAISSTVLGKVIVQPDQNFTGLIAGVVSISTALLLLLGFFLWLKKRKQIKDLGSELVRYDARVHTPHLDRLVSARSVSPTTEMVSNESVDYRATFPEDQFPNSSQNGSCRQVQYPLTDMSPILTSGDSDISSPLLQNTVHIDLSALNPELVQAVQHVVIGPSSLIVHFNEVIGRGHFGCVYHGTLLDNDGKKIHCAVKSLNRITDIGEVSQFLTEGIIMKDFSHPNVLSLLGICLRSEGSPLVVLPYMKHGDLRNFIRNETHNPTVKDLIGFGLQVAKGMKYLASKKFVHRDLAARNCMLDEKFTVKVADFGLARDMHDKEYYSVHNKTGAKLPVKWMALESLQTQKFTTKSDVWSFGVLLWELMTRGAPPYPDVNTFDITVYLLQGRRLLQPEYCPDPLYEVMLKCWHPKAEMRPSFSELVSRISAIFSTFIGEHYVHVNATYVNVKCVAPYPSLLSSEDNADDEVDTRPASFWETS
- TEST_DESCRIPTION: Inhibition of phosphorylated MET Y1230H mutant (unknown origin) pre-incubated for 30 mins before biotinylated poly(glutamate-alanine-tyrosine) peptide addition and measured after 5 mins by HTRF assay

For orientation, consider the following solved cases.
{"columns": ["GIVEN_SMILES", "MEASURED_RESULT"],
 "data": [
  ["O=C(CCCN1CCOCC1)Nc1nc2ccc(Sc3nnc4ccc(-c5ccc(F)cc5)nn34)cc2s1", "1170 nM"],
  ["O=C(NCCN1CCOCC1)Nc1nc2ccc(Sc3nnc4ccc(OC5CCCCC5)nn34)cc2s1", "252 nM"],
  ["O=C(Nc1nc2ccc(Sc3nnc4ccc(-c5ccc(F)cc5)nn34)cc2s1)C1CC1", "883 nM"],
  ["Fc1ccc(-c2ccc3nnc(Sc4ccc5nc(NCCN6CCOCC6)sc5c4)n3n2)cc1", "> 10000 nM"]
]}

Query: Identify IC50 associated with the molecule O=C(NCCN1CCOCC1)Nc1nc2ccc(Sc3nnc4ccc(Oc5cccc(F)c5)nn34)cc2s1
Reply: 56 nM

====

- TESTED_ON: Hepatocyte growth factor receptor (Homo sapiens)
- TEST_DESCRIPTION: Inhibition of wild type phosphorylated MET (unknown origin) pre-incubated for 30 mins before biotinylated poly(glutamate-alanine-tyrosine) peptide addition and measured after 5 mins by HTRF assay
The following compounds are listed with their measured IC50 values.
// note: answer is a bare numeric in nM

For orientation, consider the following solved cases.
{"columns": ["GIVEN_SMILES", "TESTED_ON", "IC50, nM"],
 "data": [
  ["COC(=O)Nc1nc2ccc(Sc3nnc4ccc(-c5ccc(F)cc5)nn34)cc2s1", "Hepatocyte growth factor receptor (Homo sapiens)", 16],
  ["COC(=O)Nc1nc2cc(Sc3nnc4ccc(-c5ccc(F)cc5)nn34)ccc2[nH]1", "Hepatocyte growth factor receptor (Homo sapiens)", 10]
]}

Attention now turns to another entry.
Query: Identify IC50 associated with the compound Nc1nc2ccc(Sc3nnc4ccc(-c5ccc(F)cc5)nn34)cc2s1
Reply: 10
